Biological target: hSSTR5 (Homo sapiens)
Construct: expressed in transfected cells; host or cells: CHO-K1 or CCL39 cells
Experiment: Receptor autoradiography, displacement of 125I-[Leu8,D-Trp22,Tyr25]-SRIF-28 from membrane pellet sections
Assay type: binding
Conditions: Table 3; mean ± SEM when N ≧ 3; read-out: sst5 binding affinity (IC50)
Experimental: Generally, recombinant cells expressing the receptor are washed and homogenized to prepare a crude protein homogenate in a suitable buffer. […] Candidate substances, such as potential SRIF agonists and antagonists, are added to the admixture in convenient concentrations, and the interaction between the candidate substance and the receptor polypeptide is monitored. […]
Bridge positions count the residues as written; N and C are the ends. Square brackets hold non-standard residues; d marks the D form. Peptide text beside a SMILES is read from it. Phe(4-NHCONH2) = NC(=O)Nc1ccc(C[C@H](N)C(=O)O)cc1; Trp(5-F) = N[C@@H](Cc1c[nH]c2ccc(F)cc12)C(=O)O; Phe(4-Cl) = N[C@@H](Cc1ccc(Cl)cc1)C(=O)O; 2Nal = N[C@@H](Cc1ccc2ccccc2c1)C(=O)O
Attribute: IC50
Express it in nM; write the number only.

compound	unitSpec	obsValue
CC(C)C[C@@H]1NC(=O)[C@H](NC(=O)[C@@H](N)Cc2ccc(Cl)cc2)CSSC[C@@H](C(=O)N[C@@H](Cc2ccc3ccccc3c2)C(N)=O)NC(=O)[C@H]([C@@H](C)O)NC(=O)[C@H](CCCCN)NC(=O)[C@@H](Cc2c[nH]c3ccccc23)NC1=O [compound 11] (H-[Phe(4-Cl)][dC]L[dW]KTC[2Nal]-NH2; disulfide 2-7)	nM	657

State its IC50: C[C@@H](O)[C@@H]1NC(=O)[C@H](CCCCN)NC(=O)[C@H](Cc2c[nH]c3ccc(F)cc23)NC(=O)[C@H](Cc2ccc(NC(N)=O)cc2)NC(=O)[C@H](NC(=O)[C@@H](N)Cc2ccc(Cl)cc2)CSSC[C@@H](C(=O)N[C@@H](Cc2ccc3ccccc3c2)C(N)=O)NC1=O [compound 26] (H-[Phe(4-Cl)][dC][Phe(4-NHCONH2)][Trp(5-F)]KTC[2Nal]-NH2; disulfide 2-7)
618

* * *

pIC50 values, listed per item
target: hSSTR1 (Homo sapiens, UniProt P30872); construct: expressed in transfected cells; host or cells: CHO-K1 or CCL39 cells; assay: Receptor autoradiography, displacement of 125I-[Leu8,D-Trp22,Tyr25]-SRIF-28 from membrane pellet sections; format: binding; conditions: Table 3; mean ± SEM when N ≧ 3; read-out: sst1 binding affinity (IC50)
Sequence (P30872 whole entry): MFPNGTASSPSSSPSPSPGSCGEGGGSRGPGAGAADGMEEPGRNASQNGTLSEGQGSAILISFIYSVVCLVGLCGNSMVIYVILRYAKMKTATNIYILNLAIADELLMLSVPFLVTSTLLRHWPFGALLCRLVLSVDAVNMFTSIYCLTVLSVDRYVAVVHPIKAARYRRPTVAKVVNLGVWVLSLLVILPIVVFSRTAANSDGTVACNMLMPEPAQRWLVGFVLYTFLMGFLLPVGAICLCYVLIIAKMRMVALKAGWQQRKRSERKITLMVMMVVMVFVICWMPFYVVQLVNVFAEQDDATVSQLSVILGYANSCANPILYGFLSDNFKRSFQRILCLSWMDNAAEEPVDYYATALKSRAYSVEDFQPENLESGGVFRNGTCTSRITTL
pIC50: −log10 of the molar value. Bridge positions count the residues as written; N and C are the ends. Square brackets hold non-standard residues; d marks the D form. Peptide text beside a SMILES is read from it. * marks the point of attachment. DOTA = O=C(O)CN1CCN(CC(=O)O)CCN(CC(=O)*)CCN(CC(=O)O)CC1; Phe(4-NO2) = N[C@@H](Cc1ccc([N+](=O)[O-])cc1)C(=O)O; dPhe(4-NHCONH2) = NC(=O)Nc1ccc(C[C@@H](N)C(=O)O)cc1; Phe(4-NHCONH2) = NC(=O)Nc1ccc(C[C@H](N)C(=O)O)cc1; Trp(5-F) = N[C@@H](Cc1c[nH]c2ccc(F)cc12)C(=O)O; Phe(4-Cl) = N[C@@H](Cc1ccc(Cl)cc1)C(=O)O; 2Nal = N[C@@H](Cc1ccc2ccccc2c1)C(=O)O

compound	targetOrSystem	pIC50
C[C@@H](O)[C@@H]1NC(=O)[C@H](CCCCN)NC(=O)[C@H](Cc2c[nH]c3ccc(F)cc23)NC(=O)[C@H](Cc2ccc(NC(N)=O)cc2)NC(=O)[C@H](NC(=O)[C@@H](N)Cc2ccc(Cl)cc2)CSSC[C@@H](C(=O)N[C@@H](Cc2ccc3ccccc3c2)C(N)=O)NC1=O [compound 26] (H-[Phe(4-Cl)][dC][Phe(4-NHCONH2)][Trp(5-F)]KTC[2Nal]-NH2; disulfide 2-7)	hSSTR1 (Homo sapiens, UniProt P30872)	< 6.00

Please find the next compound below.
Please supply the value of reported pIC50 for the item C[C@@H](O)[C@@H]1NC(=O)[C@H](CCCCN)NC(=O)[C@@H](Cc2ccc(NC(N)=O)cc2)NC(=O)[C@H](Cc2ccc(O)cc2)NC(=O)[C@H](NC(=O)[C@H](Cc2ccc([N+](=O)[O-])cc2)NC(=O)CN2CCN(CC(=O)O)CCN(CC(=O)O)CCN(CC(=O)O)CC2)CSSC[C@@H](C(=O)N[C@H](Cc2ccc(O)cc2)C(N)=O)NC1=O [Peptide No. 3] ({DOTA}-[Phe(4-NO2)][dC]Y[dPhe(4-NHCONH2)]KTC[dY]-NH2; disulfide 2-7)
< 6.00

* * *

biological target: human sst2A receptor (Homo sapiens); construct: expressed in transfected cells; host or cells: HEK293 (HEK-sst2); assay: Immunofluorescence-based sst2 internalization assay in HEK-sst2 cells; format: cell-based; conditions: n ≧ 2
Sequence (P30874 whole entry): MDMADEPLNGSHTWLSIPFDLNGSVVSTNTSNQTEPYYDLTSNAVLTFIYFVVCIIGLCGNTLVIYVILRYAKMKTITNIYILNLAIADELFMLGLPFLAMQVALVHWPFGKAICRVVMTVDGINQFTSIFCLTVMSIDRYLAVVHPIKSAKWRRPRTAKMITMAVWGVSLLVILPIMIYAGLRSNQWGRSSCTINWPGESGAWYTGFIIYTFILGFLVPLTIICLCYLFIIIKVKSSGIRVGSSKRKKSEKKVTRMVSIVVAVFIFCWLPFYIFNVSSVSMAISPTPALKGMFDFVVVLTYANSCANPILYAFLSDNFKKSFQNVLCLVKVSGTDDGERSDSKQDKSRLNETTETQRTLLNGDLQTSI
Bridge positions count the residues as written; N and C are the ends. Square brackets hold non-standard residues; d marks the D form. Peptide text beside a SMILES is read from it. Phe(4-Cl) = N[C@@H](Cc1ccc(Cl)cc1)C(=O)O; 2Nal = N[C@@H](Cc1ccc2ccccc2c1)C(=O)O
propertyName: sst2-internalization tested in vitro in HEK-sst2 cells (function)

compound	obsValue
C[C@@H](O)[C@@H]1NC(=O)[C@H](CCCCN)NC(=O)[C@@H](Cc2c[nH]c3ccccc23)NC(=O)[C@H](Cc2ccc(O)cc2)NC(=O)[C@H](NC(=O)[C@@H](N)Cc2ccc(Cl)cc2)CSSC[C@@H](C(=O)N[C@@H](Cc2ccc3ccccc3c2)C(N)=O)NC1=O [compound 7, reference compound] (H-[Phe(4-Cl)][dC]Y[dW]KTC[2Nal]-NH2; disulfide 2-7)	Antagonist
C[C@@H](O)[C@@H]1NC(=O)[C@H](CCCCN)NC(=O)[C@@H](Cc2c[nH]c3ccccc23)NC(=O)[C@H](Cc2ccc(NC(N)=O)cc2)NC(=O)[C@H](NC(=O)[C@@H](N)Cc2ccc(Cl)cc2)CSSC[C@@H](C(=O)N[C@@H](Cc2ccc3ccccc3c2)C(N)=O)NC1=O	Antagonist
C[C@@H](O)[C@@H]1NC(=O)[C@H](CCCCN)NC(=O)[C@@H](Cc2c[nH]c3ccccc23)NC(=O)[C@H](N(C)C(=O)c2ccccc2)NC(=O)[C@H](NC(=O)[C@@H](N)Cc2ccc(Cl)cc2)CSSC[C@@H](C(=O)N[C@@H](Cc2ccc3ccccc3c2)C(N)=O)NC1=O	Antagonist

* * *

Some compounds, each annotated with its measured pIC50.
biological target: hSSTR5 (Homo sapiens, UniProt P35346); construct: expressed in transfected cells; host or cells: CHO-K1 or CCL39 cells; experiment: Receptor autoradiography, displacement of 125I-[Leu8,D-Trp22,Tyr25]-SRIF-28 from membrane pellet sections; assay type: binding; conditions: Table 3; mean ± SEM when N ≧ 3; read-out: sst5 binding affinity (IC50)
Sequence (P35346 whole entry): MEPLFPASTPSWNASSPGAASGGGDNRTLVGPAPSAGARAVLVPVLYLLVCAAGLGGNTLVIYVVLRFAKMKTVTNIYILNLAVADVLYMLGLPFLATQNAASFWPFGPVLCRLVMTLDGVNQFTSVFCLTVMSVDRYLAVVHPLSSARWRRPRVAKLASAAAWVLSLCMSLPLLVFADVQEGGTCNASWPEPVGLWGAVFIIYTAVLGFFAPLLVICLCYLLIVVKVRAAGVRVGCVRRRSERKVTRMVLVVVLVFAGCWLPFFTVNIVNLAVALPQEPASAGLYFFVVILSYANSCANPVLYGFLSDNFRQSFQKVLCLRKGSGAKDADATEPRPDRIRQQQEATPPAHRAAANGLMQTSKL
Bridge positions count the residues as written; N and C are the ends. Square brackets hold non-standard residues; d marks the D form. Peptide text beside a SMILES is read from it. Phe(4-NHCONH2) = NC(=O)Nc1ccc(C[C@H](N)C(=O)O)cc1; Phe(4-Cl) = N[C@@H](Cc1ccc(Cl)cc1)C(=O)O
pIC50 here is simply -log10 of the concentration when that concentration is written in mol/L.

Here are 3 compounds together with their reported answers.
compound	pIC50
C[C@@H](O)[C@@H]1NC(=O)[C@H](CCCCN)NC(=O)[C@@H](Cc2c[nH]c3ccccc23)NC(=O)[C@H](Cc2ccc(NC(N)=O)cc2)NC(=O)[C@H](NC(=O)[C@@H](N)Cc2ccc(Cl)cc2)CSSC[C@@H](C(=O)N[C@@H](Cc2ccc(NC(N)=O)cc2)C(N)=O)NC1=O [compound 21]	6.25
C[C@@H](O)[C@@H]1NC(=O)[C@H](CCCCN)NC(=O)[C@@H](Cc2c[nH]c3ccccc23)NC(=O)[C@H](Cc2ccc(NC(=O)NO)cc2)NC(=O)[C@H](NC(=O)[C@@H](N)Cc2ccc(Cl)cc2)CSSC[C@@H](C(=O)N[C@@H](Cc2ccc3ccccc3c2)C(N)=O)NC1=O [compound 24]	6.37
C[C@@H](O)[C@@H]1NC(=O)[C@H](CCCCN)NC(=O)[C@@H](Cc2c[nH]c3ccccc23)NC(=O)[C@@H](N(C)C(=O)c2ccccc2)NC(=O)[C@H](NC(=O)[C@@H](N)Cc2ccc(Cl)cc2)CSSC[C@@H](C(=O)N[C@@H](Cc2ccc3ccccc3c2)C(N)=O)NC1=O [compound 10]	6.14

Alright, here's another compound for you.
# return recorded pIC50 for input C[C@@H](O)[C@@H]1NC(=O)[C@H](CCCCN)NC(=O)[C@@H](Cc2c[nH]c3ccccc23)NC(=O)[C@H](Cc2ccc(NC(N)=O)cc2)NC(=O)[C@H](NC(=O)[C@@H](N)Cc2ccc(Cl)cc2)CSSC[C@@H](C(N)=O)NC1=O [compound 17] (H-[Phe(4-Cl)][dC][Phe(4-NHCONH2)][dW]KTC-NH2; disulfide 2-7)
6.34

# credit: patent US8691761B2
